B1: TMEM106C (parent)
chain: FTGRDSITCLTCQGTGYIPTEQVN

Variants of: B1
Experiment: protein stability index of a GFP-peptide fusion (GPS, HEK-293T) (PSI 1-6); higher = more stable;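 further: lentivirally expressed fusions sorted by FACS into six bins by GFP to DsRed ratio, PSI derived from sequencing read proportions per bin multiplied by bin number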
Conditions: c terminus: a fixed tail appended
assay_readout: protein stability index
// no unit string in output, number only

Example cases with answers are listed next.
protein stability index for "G14Q" ?
1.99

protein stability index for "I18K" ?
1.82

protein stability index for "S6R" ?
2.45

protein stability index for "C12T" ?
1.63

protein stability index for "Q22S" ?
1.79

***
protein stability index for "E21T" ?
2.08

protein stability index for "T15S" ?
1.56

protein stability index for "C12F" ?
2.34
